The following binders are listed with their measured EC50 values.
Molecular target: T1, monkey antigen protein (monkey CD112R, Uniprot ID: A0A2K5WVV8) (monkey, UniProt A0A2K5WVV8 41-171)
T1 sequence: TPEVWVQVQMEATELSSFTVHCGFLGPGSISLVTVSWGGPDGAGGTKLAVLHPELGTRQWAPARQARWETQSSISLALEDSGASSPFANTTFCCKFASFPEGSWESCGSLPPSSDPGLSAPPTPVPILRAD
Test: ELISA, monkey antigen protein (as Example 6.1)
Hi! Could you send only the number? It should be in nM, unit omitted.

binder	measure	unit	val
C6 (antibody, human IgG1, kappa, V domains shown) VH: QVHLHQSGPELVKPGASVKISCKASGYTFTAYYINWVKQRPGQGLEWIGWIFPGSDSTYYNEKFKGRATLTVDKSSSTAYMLLNSLTSEDSAVYFCARDGELRGPFDYWGQGTTLTVSS VL: DIQMTQSPSSLSASLGGKVTITCKASQDINKYIAWYQHKPGKSPRLLIHYTSTLQAGIPSRFSGSGSGRDYSFSISNLEPEDSATYYCLQYDNLLTFGGGTKLEIKR	EC50	nM	0.058
C14 (antibody, human IgG1, kappa, V domains shown) VH: QVQLQQPGAELVRPGTSVKLSCKASGNTFTSYWMHWVKQRPGQGHEWIGVIDASDSNTKYNQKFKGKATLTVDTSSSTAYMQLSSLTSEDSAVYYCARYYSGSSYGLDYWGQGTTLTVSS VL: DIQMTQTASSLSASLGDRVTISCRASQDISNYLNWYQQKPDGTVKLLIYYTSRLHSGVPSRFSGSGSGTDFSLTITHLEQEDIASYFCQQGNMFPPTFGGGTKLEIKR	EC50	nM	0.067

As a next step, examine the binder that follows.
Kindly note the recorded EC50 for C28 (antibody, human IgG1, kappa, V domains shown) VH: QIQLQQSGPELVKPGPSVKISCKASGYTFTDYYINWVKQRPGQGLEWIGWIYPGSGYTKYNEKLKGRATLTVDTSSSTAYMQLSSLTSEDSAVYFCARDSFYAMDYWGQGTSVTVSS VL: DIVMTQSQKFMSTTVGDRVSITCKASQNVGTAVAWYQQKPGQSPKLLIYSASNRYTGVPDRFTGSGSGTDFTLTITNMQSEDLADYFCLQYSSYLTFGAGTKLELKR , which is 0.054
